experiment: Solubility of miconazole nitrate in several common solvents; type: physicochemical; settings: organic solvent or mixture; Solvent: Hexane; read-out: solubility
quantity: solubility
Form field: result (number plus unit)

Record summary for Clc1ccc(COC(Cn2ccnc2)c2ccc(Cl)cc2Cl)c(Cl)c1.O=[N+]([O-])O (stereo not shown) [miconazole nitrate] : reported solubility = 300 µg/mL

* * *

test: Solubility of miconazole nitrate in several common solvents; type: physicochemical; details: Solvent: HCl 0.1 N; read-out: solubility
quantity: solubility

Record summary for Clc1ccc(COC(Cn2ccnc2)c2ccc(Cl)cc2Cl)c(Cl)c1.O=[N+]([O-])O (stereo not shown) [miconazole nitrate] : reported solubility = 500 µg/mL

* * *

experiment: Solubility of miconazole nitrate in several common solvents; assay type: physicochemical; details: organic solvent or mixture; Solvent: Acetone; read-out: solubility
quantity: solubility (µg/mL)
The response must be a number in µg/mL with no trailing unit.

Record summary for Clc1ccc(COC(Cn2ccnc2)c2ccc(Cl)cc2Cl)c(Cl)c1.O=[N+]([O-])O (stereo not shown) [miconazole nitrate] : reported solubility = 3400

* * *

test: Solubility of miconazole nitrate in several common solvents; assay type: physicochemical; details: organic solvent or mixture; Solvent: Methyl Isobutylketone; read-out: solubility
quantity: solubility (µg/mL)
The response must be a number in µg/mL with no trailing unit.

Record summary for Clc1ccc(COC(Cn2ccnc2)c2ccc(Cl)cc2Cl)c(Cl)c1.O=[N+]([O-])O (stereo not shown) [miconazole nitrate] : reported solubility = 400

* * *

Experiment: Solubility of miconazole nitrate in several common solvents
Type: physicochemical
Settings: Solvent: Water; read-out: solubility
Description: The imidazole ethers in general and the miconazoles in particular have very low solubilities in most solvents suitable for use in topical pharmaceutical compositions such as in the treatment of fungal skin infections. The solubility of miconazole nitrate, for example, in several common solvents has been determined to be as follows: […]
quantity: solubility (µg/mL)
The response must be a number in µg/mL with no trailing unit.

Record summary for Clc1ccc(COC(Cn2ccnc2)c2ccc(Cl)cc2Cl)c(Cl)c1.O=[N+]([O-])O (stereo not shown) [miconazole nitrate] : reported solubility = 300

* * *

experiment: Solubility of miconazole nitrate in several common solvents; assay type: physicochemical; conditions: organic solvent or mixture; Solvent: 2-Propanol; read-out: solubility
quantity: solubility (µg/mL)
The response must be a number in µg/mL with no trailing unit.

Record summary for Clc1ccc(COC(Cn2ccnc2)c2ccc(Cl)cc2Cl)c(Cl)c1.O=[N+]([O-])O (stereo not shown) [miconazole nitrate] : reported solubility = 1300

* * *

experiment: Solubility of miconazole nitrate in several common solvents; assay type: physicochemical; settings: organic solvent or mixture; Solvent: Methanol; read-out: solubility
quantity: solubility

Record summary for Clc1ccc(COC(Cn2ccnc2)c2ccc(Cl)cc2Cl)c(Cl)c1.O=[N+]([O-])O (stereo not shown) [miconazole nitrate] : reported solubility = 15 mg/mL

* * *

assay: Solubility of miconazole nitrate in several common solvents; assay type: physicochemical; conditions: organic solvent or mixture; Solvent: Ethyl Acetate; read-out: solubility
quantity: solubility (µg/mL)
The response must be a number in µg/mL with no trailing unit.

Record summary for Clc1ccc(COC(Cn2ccnc2)c2ccc(Cl)cc2Cl)c(Cl)c1.O=[N+]([O-])O (stereo not shown) [miconazole nitrate] : reported solubility = 700

* * *

assay: Solubility of miconazole nitrate in several common solvents; assay type: physicochemical; details: Solvent: 40% PG/water; read-out: solubility
quantity: solubility
Form field: result (number plus unit)

Record summary for Clc1ccc(COC(Cn2ccnc2)c2ccc(Cl)cc2Cl)c(Cl)c1.O=[N+]([O-])O (stereo not shown) [miconazole nitrate] : reported solubility = 1300 µg/mL
